Target: Rhesus PDE2A3 (Macaca mulatta)
Sequence (B3VTJ2 1-941): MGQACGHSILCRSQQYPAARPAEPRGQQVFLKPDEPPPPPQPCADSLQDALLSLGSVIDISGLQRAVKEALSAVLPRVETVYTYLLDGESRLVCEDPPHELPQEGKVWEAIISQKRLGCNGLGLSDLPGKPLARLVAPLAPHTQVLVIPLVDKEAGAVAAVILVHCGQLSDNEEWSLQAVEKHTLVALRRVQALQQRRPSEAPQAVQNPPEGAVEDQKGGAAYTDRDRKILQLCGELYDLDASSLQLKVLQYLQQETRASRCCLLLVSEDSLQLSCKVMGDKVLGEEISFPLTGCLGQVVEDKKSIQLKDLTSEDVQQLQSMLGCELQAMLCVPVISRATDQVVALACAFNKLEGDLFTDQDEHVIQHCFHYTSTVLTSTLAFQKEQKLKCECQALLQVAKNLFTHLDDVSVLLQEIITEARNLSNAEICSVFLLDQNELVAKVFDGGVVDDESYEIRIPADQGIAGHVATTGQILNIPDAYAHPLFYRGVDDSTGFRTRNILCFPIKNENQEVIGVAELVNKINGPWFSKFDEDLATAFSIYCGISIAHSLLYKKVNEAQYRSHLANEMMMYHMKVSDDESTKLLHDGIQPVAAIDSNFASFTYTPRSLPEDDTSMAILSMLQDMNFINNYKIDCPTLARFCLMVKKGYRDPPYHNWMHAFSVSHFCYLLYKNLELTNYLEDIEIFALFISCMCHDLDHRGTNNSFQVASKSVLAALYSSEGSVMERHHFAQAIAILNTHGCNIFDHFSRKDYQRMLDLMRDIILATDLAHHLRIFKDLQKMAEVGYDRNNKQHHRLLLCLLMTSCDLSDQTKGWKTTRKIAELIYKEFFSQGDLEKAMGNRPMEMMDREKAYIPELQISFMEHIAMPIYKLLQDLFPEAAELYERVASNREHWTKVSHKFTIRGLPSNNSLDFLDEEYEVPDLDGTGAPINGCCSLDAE
Experiment: PDE2 fluorescence polarization (IMAP FP) assay, rhesus PDE2A3
Assay type: biochemical, rhesus macaque
Conditions: Lab B, read-out: Rhesus PDE2 Ki (nM) Lab B
The label y is reserved for Ki strictly under 1 nM; n covers values equal to or above it.

Exercise: Quick check: Ki of CC(C)C(c1ccc(OC(F)F)cc1)n1nc(CF)c2c(=O)[nH]c(N(C)C)nc21 (single isomer, unassigned) [Example 185] under 1 nM?
Solution: y

Exercise: Is Ki strictly under 1 nM for the entry CC(C)C(c1ccc(OC(F)(F)F)cc1)n1nc(CC(F)(F)F)c2c(=O)[nH]c(O)nc21 (single isomer, unassigned) [Example 232] ?
Solution: n

Exercise: # TODO verify Ki < 1 nM strictly for this molecule: CN(C)c1nc2c(c(CO)nn2C(c2ccc(OC(F)F)cc2)C2CC2)c(=O)[nH]1 (single isomer, unassigned) [Example 128]
Solution: y

Exercise: Please check: Ki for CC(c1ccc(OC(F)(F)F)cc1)n1nc(CC(F)(F)F)c2c(=O)[nH]c(O)nc21 (racemic) [Example 230] , strictly under 1 nM or not?
Solution: n

Exercise: Strictly below 1 nM: is that where Ki of CC(c1ccc(C(C)(C)C)cc1)n1nc(CO)c2c(=O)[nH]c(O)nc21 (centres unmarked) [Example 7] sits?
Solution: n

Exercise: Below 1 nM on Ki? Entry C[C@H](c1ccc(C(F)(F)F)c(F)c1)n1nc(CF)c2c(=O)[nH]c(O)nc21 (mixture of isomers) [Example 34]
Solution: n
